Provenance of the data: PubChem BioAssay AID504848

# test summary: Confirmation screen for delayed death inhibitors of the malarial parasite plastid, 96 hour incubation; also: nearly all actives have a fitted effect of over 60% in size
# assay setup: P. falciparum luciferase growth in erythrocytes; series mostly up to 28.7 µM
# From the text: The goal of this screen is to discover new antimalarial compounds that act by inhibiting the development of the apicoplast in the malarial parasite Plasmodium falciparum. The biochemical processes that make this organelle essential for erythrocytic stage parasites are not well understood. […] Growth inhibition is detected by a decrease in luciferase activity. […]
Out of some 2,300 compounds screened, about 1,400 (61%) were called active. Not shown: some 29% with an inconclusive outcome. Calls follow the shape of the dose curve; as a rule, active = well fitted inhibition curve with a large enough effect; inconclusive = small, poorly fitted or top-dose-only effect, or effect the other way; inactive = no such curve, though single readings can be large or run the other way. So high a share suggests a set chosen from earlier hits. This is one part of the list.
Hi there, use one of these labels in your reply, thanks! true (1) (active), false (0) (inactive)

Some solved entries appear below for comparison.
molecule | qualitative label
COC(=O)c1ccccc1SC1CC(=O)N(c2ccccc2)C1=O (configuration not stated) | false (0)
CCC(C)[C@H](NC(=O)[C@H](Cc1ccccc1)n1c(=O)[nH]c2ccccc2c1=O)C(=O)NCC1CCC(C(=O)O)CC1 (some centres not stated) | true (1)
Cc1ccc(-n2ncc3c(SCc4ccccn4)ncnc32)c(C)c1 | true (1)

Next item in the queue.
Per the records of this test, what outcome belongs to O=S(=O)(Nc1ccc(O)c(Sc2nc3ccccc3s2)c1)c1cccc2ccccc12 ? true (1)

====

# test summary: Confirmation screen for delayed death inhibitors of the malarial parasite plastid, 96 hour incubation; also: nearly all actives have a fitted effect of over 60% in size
# assay setup: P. falciparum luciferase growth in erythrocytes; series mostly up to 28.7 µM
The campaign covered roughly 2,300 compounds. About 1,400 (61%) were called active. Inconclusive results (about 29%) are left out. Calls come from the whole dose curve; as a rule, active = well fitted inhibition curve with a large enough effect; inconclusive = small, poorly fitted or top-dose-only effect, or effect the other way; inactive = no such curve, though single readings can be large or run the other way. The set was probably picked from earlier hits. Some of the results follow.
Parameter call: string, one of active, inactive

These recorded examples may help you get a feel for the data.
compound | qualitative label
Nc1nonc1-n1nnc(C(=O)N/N=C/c2cccc(Cl)c2)c1-c1ccc2c(c1)OCO2 | active
Fc1cc2nc(-c3ccncc3)[nH]c2cc1F | active
Cc1cccc(CSc2cccc3cccnc23)c1 | active
CCOc1ccc(C(C)=O)cc1COc1ccc(-c2nnco2)cc1 | active
CCOc1cc(/C=C2\CN(CC)C/C(=C\c3ccc(O)c(OCC)c3)C2=O)ccc1O | active
Cc1cc(C)n2nc(C(=O)N/N=C/c3c4ccccc4cc4ccccc34)nc2n1 | active
COc1ccccc1N1CC(O)=C(c2nc3ccccc3s2)C1=N | active
O=C(c1ccc(Cl)cc1)C(CN1CCCCC1)c1ccccc1 (configuration not stated) | active

What did this assay record as the result for CCOc1ccc(-c2c(C(=O)N/N=C/c3ccc(OC(C)C)cc3)nnn2-c2nonc2N)cc1 ? active

Give the logged outcome of this assay for the following compound: CCN1C/C(=C/c2ccc(OC)c(O)c2)C(=O)/C(=C/c2ccc(OC)c(O)c2)C1 active

Could you check what this test reported for C[N+]1(CCCCSc2ccc(O)cc2)CCCCC1 ? active

Record request — test call for COc1ccc(/C=C2\CN(Cc3ccccc3)C/C(=C\c3ccc(OC)c(O)c3)C2=O)cc1O active

====

# test summary: Confirmation screen for delayed death inhibitors of the malarial parasite plastid, 96 hour incubation; also: nearly all actives have a fitted effect of over 60% in size
# assay setup: P. falciparum luciferase growth in erythrocytes; series mostly up to 28.7 µM
# From the text: The goal of this screen is to discover new antimalarial compounds that act by inhibiting the development of the apicoplast in the malarial parasite Plasmodium falciparum. The biochemical processes that make this organelle essential for erythrocytic stage parasites are not well understood. […] Growth inhibition is detected by a decrease in luciferase activity. […]
Hit rate of the full screen: of about 2,300 compounds, about 1,400 (61%) were called active. About 29% were inconclusive and are not listed. Calls come from the whole dose curve; as a rule, active = well fitted inhibition curve with a large enough effect; inconclusive = small, poorly fitted or top-dose-only effect, or effect the other way; inactive = no such curve, though single readings can be large or run the other way. So high a share suggests a set chosen from earlier hits. The list shows a part of the results.
// one of YES (active), NO (inactive), no free text

For orientation, consider the following solved cases.
molecule | qualitative label
CN(CCOc1ccccc1)C(=O)C1CCC(=O)N(CCN2CCOCC2)C1 (centres undefined) | NO
COc1ccc(/C=C/C(=O)c2ccc([N+](=O)[O-])o2)cc1OC | YES
COc1ccc(NC(=O)NC2CCCCCCC2)c(OC)c1 | YES

Hey, what did the test say about O=C(O)c1ccccc1Nc1ccc([N+](=O)[O-])cc1 ? NO

Assay result, entry CCOC(=O)c1c[nH]c2cc(OCC(C)C)c(OCC(C)C)cc2c1=O — outcome? YES

Could you check what this test reported for Cc1ccc2c(c1)cc(C(=O)NCc1ccccc1)n2C ? NO

Identify the outcome logged in this assay for the molecule shown: CCN1CCN(Cc2c(O)ccc3c2O/C(=C\C=C\c2ccccc2)C3=O)CC1 YES

Record request — test call for CC(C)(C)C(=O)NNC(=O)c1cc(C(C)(C)C)nn1Cc1ccccc1 YES

Hi, do you know how OCCNC(=S)Nc1ccc(Cl)c(Cl)c1 came out in this test? YES
